- assay.remarks: qHTS assay to identify small molecule antagonists of the estrogen receptor alpha (ER-alpha) signaling pathway - cell viability counter screen (AID 743074);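 note: HEK293 cells carrying ER-alpha-UAS-bla reporter stimulated with 17beta-estradiol; nearly all actives have a fitted effect of over 45% in size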; note: potency is the fitted concentration of half-maximal effect
- test.conditions: ERalpha-bla HEK293 viability, CellTiter-Glo luminescence, 18 h; series mostly up to 69.4 µM
Results filed as inconclusive are left out. Calls of active or inactive are those of the source. Calls come from the whole dose curve.
value.type: Potency

>>> value_observed("CCCCCCCCS(=O)C(C)Cc1ccc2c(c1)OCO2 (stereo not given)")
"inactive"
>>> value_observed("Cc1[nH]nc2c1N=C(c1ccccc1Cl)c1cc([N+](=O)[O-])ccc1N2")
"6.92 µM (active)"
>>> value_observed("CCCCCCCC[N+](CCCCCCCC)(CCCCCCCC)CCCCCCCC")
"15.5 µM (active)"
>>> value_observed("O=C(Oc1ccccc1)c1ccccc1C(=O)Oc1ccccc1")
"inactive"
>>> value_observed("NC(=NCCCCCCN=C(N)/N=C(\\N)Nc1ccc(Cl)cc1)/N=C(\\N)Nc1ccc(Cl)cc1")
"25 µM (active) [middle of 4 runs]"
>>> value_observed("CCCCCCCCCCCCCCCCCC[N+](C)(C)Cc1ccccc1")
"22.1 µM (active)"
>>> value_observed("O=C(O)c1ccc(Cl)c(Cl)c1")
"inactive"
>>> value_observed("O=C(OCC(COC(=O)c1ccccc1)(COC(=O)c1ccccc1)COC(=O)c1ccccc1)c1ccccc1")
"inactive"
>>> value_observed("CCC(C)(C)C1CCCCC1OC(C)=O (stereo not given)")
"inactive"
>>> value_observed("CN1CCC(Nc2ncc3ncnc(Nc4ccc(F)c(Cl)c4)c3n2)CC1")
"inactive"

----------
- assay.remarks: qHTS assay to identify small molecule agonists of the endoplasmic reticulum stress response signaling pathway - cell viability counter screen (AID 1159517);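 note: HeLa cells carrying an ER stress response element beta-lactamase reporter; nearly all actives have a fitted effect of over 50% in size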
- test.conditions: ESRE-bla HeLa viability, CellTiter-Glo luminescence, 5 h; series mostly up to 61 µM
Results filed as inconclusive are left out. Calls of active or inactive are those of the source. The call rests on the fitted dose curve.
value.type: outcome

>>> value_observed("OCCCCCCCCCCCCBr")
"inactive"
>>> value_observed("Cc1cc(N)c(S(=O)(=O)O)cc1Cl")
"inactive"
>>> value_observed("O=C(OCC(COC(=O)c1ccccc1)(COC(=O)c1ccccc1)COC(=O)c1ccccc1)c1ccccc1")
"inactive"
>>> value_observed("O=C1c2ccccc2Cc2ccccc21")
"inactive"
>>> value_observed("CC(C)(C)C1CCC(CC2=C(O)c3ccccc3C(=O)C2=O)CC1 (stereo unspecified)")
"inactive"
>>> value_observed("NNc1nc(-c2ccc([N+](=O)[O-])cc2)cs1")
"inactive"

----------
- system.name: Nuclear receptor subfamily 1 group I member 2 (Homo sapiens) (UniProt O75469)
- assay.remarks: CYP3A4 induction through human pregnane X receptor (PXR) by small molecules, qHTS assay (AID 1346984); note: nearly all actives have a fitted effect of over 40% in size
- test.conditions: DPX-2 HepG2 PXR, CYP3A4-luciferin luminescence, 24 h; series mostly up to 46.1 µM
- Description: National Center for Advancing Translational Sciences [NCATS] NIH Chemical Genomics Center [NCGC] U.S. Environmental Protection Agency [EPA] National Institutes of Environmental Health Sciences [NIEHS] National Toxicology Program [NTP] The Pregnane X receptor (PXR), a ligand activated nuclear receptor plays a critical role in the regulation of genes involved in drug metabolism and transporters. Activation of PXR is responsible for unwanted adverse drug reactions. […]
Records with an inconclusive call do not appear. The source made the active and inactive calls. The call rests on the fitted dose curve; in most records, active means well fitted activation curve with a large enough effect in the repeat runs; inconclusive means weak or mixed curves; inactive means no such curve, though single readings can be large or run the other way.
Outcome codes: TRUE = active, FALSE = inactive

>>> discrete_label("[O-][n+]1ccccc1SSc1cccc[n+]1[O-]")
"FALSE"
>>> discrete_label("CCCCCCCCCCCCCCCC[N+](C)(C)CCN(Cc1ccc(OC)cc1)c1ncccn1")
"FALSE"
>>> discrete_label("O=C(N/N=C/c1ccccc1O)c1ccncc1")
"FALSE"
>>> discrete_label("CC(C)(C)NC(=O)[C@@H]1C[C@@H]2CCCC[C@@H]2CN1C[C@@H](O)[C@H](Cc1ccccc1)NC(=O)[C@H](CC(N)=O)NC(=O)c1ccc2ccccc2n1")
"FALSE"
>>> discrete_label("O=C(Nc1cccc(C(F)(F)F)c1)c1cc(Br)cc(Br)c1O")
"FALSE"
>>> discrete_label("O=C(Oc1cccc2cccnc12)c1ccccc1")
"FALSE"
>>> discrete_label("CCN1/C(=C/C=C/c2sc3ccccc3[n+]2CC)Sc2ccccc21")
"FALSE"
>>> discrete_label("Cc1cc(O)c2ccccc2c1O")
"TRUE"

----------
- assay.remarks: qHTS assay to identify small molecule HDAC inhibitors - cell viability counter screen (AID 1259365); note: nearly all actives have a fitted effect of over 50% in size
- test.conditions: HCT-116 viability, CellTiter-Glo ATP luminescence, 2 h; series mostly up to 92.4 µM
Activity calls are given as the source filed them. Calls come from the whole dose curve; as a rule, active = well fitted cell-killing curve with a large enough effect in the repeat runs; inconclusive = weak or mixed curves, or effect the other way; inactive = flat fitted curve, though single readings scatter.
Outcomes: class 1 (active), class 0 (inactive)

>>> discrete_label("Fc1ccc([C@@H]2CCNC[C@H]2COc2ccc3c(c2)OCO3)cc1")
"class 0"
>>> discrete_label("CCC(N)(CO)CO")
"class 0"
>>> discrete_label("CCCCCCOC(=O)c1ccc(O)cc1")
"class 0"
>>> discrete_label("O=c1c(-c2ccccc2)c1-c1ccccc1")
"class 0"
>>> discrete_label("Cc1ccc(O)c(C(C)(C)C)c1")
"class 0"
>>> discrete_label("CN(C/C=C/C#CC(C)(C)C)Cc1cccc2ccccc12")
"class 0"
>>> discrete_label("O=C(Nc1cccc(C(F)(F)F)c1)c1cc(Br)cc(Br)c1O")
"class 0"
>>> discrete_label("Cc1[nH]nc2c1N=C(c1ccccc1Cl)c1cc([N+](=O)[O-])ccc1N2")
"class 0"
>>> discrete_label("CCCCCCCC[N+](CCCCCCCC)(CCCCCCCC)CCCCCCCC")
"class 1"
>>> discrete_label("[Cl][Bi]([Cl])([c]1ccccc1)([c]1ccccc1)[c]1ccccc1")
"class 0"
>>> discrete_label("NC(=O)CC[C@@H]1NC(=O)[C@H](Cc2ccccc2)NC(=O)[C@H](Cc2ccc(O)cc2)NC(=O)CCSSC[C@@H](C(=O)N2CCC[C@H]2C(=O)N[C@@H](CCCN=C(N)N)C(=O)NCC(N)=O)NC(=O)[C@H](CC(N)=O)NC1=O")
"class 0"
>>> discrete_label("Cc1ccc(-n2nc(C(C)(C)C)cc2NC(=O)Nc2ccc(OCCN3CCOCC3)c3ccccc23)cc1")
"class 0"
>>> discrete_label("Cc1nc(-c2ccc3c(c2)CCN(CCC2CCC(NC(=O)/C=C/c4ccc(F)cc4)CC2)CC3)no1 (stereo not given)")
"class 0"
>>> discrete_label("CCOC(=O)O[C@H](C)OC(=O)c1ccc2c(c1)cc(C(=O)NC1CCN(C(C)C)CC1)n2Cc1cc(-c2ccc(Cl)s2)on1")
"class 1"
>>> discrete_label("CCOC(=O)/C=C(C)/C=C/C=C(C)/C=C/c1c(C)cc(OC)c(C)c1C")
"class 0"
>>> discrete_label("CCCCCOc1ccccc1/C(=C\\SC)n1ccnc1")
"class 0"
>>> discrete_label("CCCCc1oc2ccc(NS(C)(=O)=O)cc2c1C(=O)c1ccc(OCCCN(CCCC)CCCC)cc1")
"class 0"
>>> discrete_label("CCCCCCCCCCCCCCCC(=O)OC[C@H](O)[C@H]1OC(=O)C(O)=C1O")
"class 0"
>>> discrete_label("CCCCCCCC/C=C/CCCCCCCC1=NCCN1CCO")
"class 0"
>>> discrete_label("CCC1OCC(COc2ccc(Oc3ccccc3)cc2)O1 (stereo not given)")
"class 0"
>>> discrete_label("Nc1c2ccccc2nc2ccccc12")
"class 0"
>>> discrete_label("CC(=O)SC[C@@H](Cc1ccccc1)C(=O)NCC(=O)OCc1ccccc1")
"class 0"
>>> discrete_label("CCOc1ccc2nc3cc(N)ccc3c(N)c2c1")
"class 0"
>>> discrete_label("CCCCC(CC)COP(=O)(O)OCC(CC)CCCC (stereo not given)")
"class 0"
>>> discrete_label("C/C(=C(/OCCOc1ccc(Cl)cc1)c1ccc(Cl)cc1Cl)n1ccnc1")
"class 0"
>>> discrete_label("S=c1[nH]c2ccccc2s1")
"class 0"
>>> discrete_label("CC1=C(C(=O)OC(C)C)C(c2cccc([N+](=O)[O-])c2)C(C(=O)OC2CN(C(c3ccccc3)c3ccccc3)C2)=C(N)N1 (stereo not given)")
"class 0"
>>> discrete_label("NNc1nc(-c2ccc(N)cc2)cs1")
"class 0"
>>> discrete_label("C=C(C)C(=O)OCC(O)COc1ccc(C(C)(C)c2ccc(OCC(O)COC(=O)C(=C)C)cc2)cc1 (stereo not given)")
"class 0"
>>> discrete_label("CC1=NC(C)OC1C (stereo not given)")
"class 0"
>>> discrete_label("NC(=O)C1(N2CCCCC2)CCN(CCCN2c3ccccc3CCc3ccc(Cl)cc32)CC1")
"class 0"
>>> discrete_label("CC(C)(C)C1CCC(CC2=C(O)c3ccccc3C(=O)C2=O)CC1 (stereo not given)")
"class 0"
>>> discrete_label("c1ccc(CSCc2ccccc2)cc1")
"class 0"
>>> discrete_label("CNCc1cc(F)ccc1Oc1ccc(Cl)c(Cl)c1")
"class 0"
>>> discrete_label("Clc1ccc2cc3ccccc3cc2c1")
"class 0"
>>> discrete_label("O=C(N/N=C/c1ccccc1O)c1ccncc1")
"class 0"
>>> discrete_label("CCCC(C)c1ccccc1O (stereo not given)")
"class 0"
>>> discrete_label("Oc1ccc2cc(SSc3ccc4cc(O)ccc4c3)ccc2c1")
"class 0"
>>> discrete_label("CN(C)[C@@H]1C(=O)C(C(N)=O)=C(O)[C@@]2(O)C(=O)C3=C(O)c4c(O)ccc(Cl)c4[C@@H](O)[C@H]3C[C@@H]12")
"class 0"
>>> discrete_label("C=C(C)C(=O)OCC[N+](C)(C)C")
"class 0"
>>> discrete_label("CCCCCCCC/C=C\\CCCCCCCCOCCO")
"class 0"
>>> discrete_label("CC(C)(C)C(=O)OCOC(=O)C1N2C(=O)CC2S(=O)(=O)C1(C)C (stereo not given)")
"class 0"
>>> discrete_label("C[C@H]1[C@H]2CC[C@H]3[C@@H]4CC=C5C[C@@H](N(C)C)CC[C@]5(C)[C@H]4CC[C@]23CN1C")
"class 0"
>>> discrete_label("CCCCCCCCCCCCc1ccc(O)cc1")
"class 0"
>>> discrete_label("CCCCCCCCCCCCCCCS(=O)(=O)Oc1ccccc1")
"class 0"
